# procedure_summary: Inhibitory activity against Phenylalanine Ammonia-lyase (PAL)
I'd appreciate it if you could supply Ki values for the items below.

[
  {
    "molecule": "COc1cc(C2(C(F)(F)F)N=N2)ccc1/C=C/C(=O)O",
    "Ki": "240 µM"
  }
]

Next molecule, Ki to be filled in.
Prompt: Supply Ki value. Item: O=C(O)/C=C/c1ccc(C2(C(F)(F)F)N=N2)cc1OCCOCCOCCNC(=O)CCCC[C@@H]1SCC2NC(=O)NC21 (some centres not stated)
Response: 520 µM
